- Tested target: BRD9 (Homo sapiens, UniProt Q9H8M2)
- Construct: bromodomain
- Sequence (Q9H8M2 134-240 limits assumed): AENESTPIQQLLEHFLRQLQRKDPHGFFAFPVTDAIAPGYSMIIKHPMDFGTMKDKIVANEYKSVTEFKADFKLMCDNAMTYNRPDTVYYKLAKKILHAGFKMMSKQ
- Measurement protocol: SPR (Biacore T200, NiHC1500M chip)
Assay readout: pKd
A value of pKd is the negative decimal logarithm of a concentration given in moles per litre.

Prompt line: # get_value(readout='pKd', item= CS(=O)(=O)c1nc(NCCCn2cccn2)cc(-c2ccc(NCc3cn(CCOCCOCCOCCOCCOCCNc4cccc5c4C(=O)N(C4CCC(=O)NC4=O)C5=O)nn3)cc2)n1 (stereo not shown) )
Response line: 4.54

* * *

- Tested target: BPTF (Homo sapiens, UniProt Q12830)
- Construct: bromodomain
- Measurement protocol: SPR (Biacore T200, NiHC1500M chip)
Assay readout: pKd
Just so you know, pKd here is -log10 of the concentration in molar units; reply with that number alone.

Prompt line: If you can, please state the reported pKd value of CS(=O)(=O)c1nc(NCCCn2cccn2)cc(-c2ccc(NCc3cn(CCOCCOCCOCCOCCOCCNc4cccc5c4C(=O)N(C4CCC(=O)NC4=O)C5=O)nn3)cc2)n1 (stereo not shown) [8d] .
Response line: 6.25

Values were extracted from paper PMC11997503.
